- study.target: T1, Recombinant Human DLL4 (delta-like protein 4) (human, UniProt Q9NR61 27-524)
- T1 construct: Bought recombinant protein (R&D Systems Cat#1506-D4/CF); also called rHuman DLL4; Delta-like 4
- experiment.summary: ELISA, DLL4 coated on plate, Fab in solution, absorbance at 450 nm
reported.property: ELISA (Signal-Noise)
Provide a numeric answer; units are not to be included.

Solved entries (count: 3):
Fab VH1-46_IGHD6-6*01_IGHJ1*01 S102A/S103P/S104F/H111F (H:APFF) & L6_IGKJ1*01 S76P (Fab, V domains shown, Tested as Fab expressed in E. coli; VH was cloned into Plasmid A (CH1 constant region, His6 and Flag tags) and the kappa VL into Plasmid C (kappa CL)) VH: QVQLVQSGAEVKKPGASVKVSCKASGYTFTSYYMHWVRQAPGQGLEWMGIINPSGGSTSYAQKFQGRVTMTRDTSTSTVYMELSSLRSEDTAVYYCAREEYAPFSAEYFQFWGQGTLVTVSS VL: EIVLTQSPATLSLSPGERATLSCRASQSVSSYLAWYQQKPGQAPRLLIYDASNRATGIPARFSGSGSGTDFTLTIPSLEPEDFAVYYCQQRSNWPPWTFGQGTKVEIKR
0.29
Fab VH1-46_IGHD6-6*01_IGHJ1*01 S102A/S103P/S104F/H111F (H:APFF) & L6_IGKJ1*01 S76N (Fab, V domains shown, Tested as Fab expressed in E. coli; VH was cloned into Plasmid A (CH1 constant region, His6 and Flag tags) and the kappa VL into Plasmid C (kappa CL)) VH: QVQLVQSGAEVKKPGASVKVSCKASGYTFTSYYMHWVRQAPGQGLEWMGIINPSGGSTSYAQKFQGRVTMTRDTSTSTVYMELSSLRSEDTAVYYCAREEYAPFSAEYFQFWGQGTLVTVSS VL: EIVLTQSPATLSLSPGERATLSCRASQSVSSYLAWYQQKPGQAPRLLIYDASNRATGIPARFSGSGSGTDFTLTINSLEPEDFAVYYCQQRSNWPPWTFGQGTKVEIKR
0.28
Fab VH1-46_IGHD6-6*01_IGHJ1*01 S102A/S103P/S104F/H111F (H:APFF) & L6_IGKJ1*01 S76Q (Fab, V domains shown, Tested as Fab expressed in E. coli; VH was cloned into Plasmid A (CH1 constant region, His6 and Flag tags) and the kappa VL into Plasmid C (kappa CL)) VH: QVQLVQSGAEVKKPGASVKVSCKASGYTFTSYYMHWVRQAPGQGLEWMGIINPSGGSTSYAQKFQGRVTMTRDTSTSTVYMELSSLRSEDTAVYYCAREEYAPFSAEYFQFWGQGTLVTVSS VL: EIVLTQSPATLSLSPGERATLSCRASQSVSSYLAWYQQKPGQAPRLLIYDASNRATGIPARFSGSGSGTDFTLTIQSLEPEDFAVYYCQQRSNWPPWTFGQGTKVEIKR
0.32

Could you now look at the following binder, please?
Which ELISA (Signal-Noise) is listed for Fab VH1-46_IGHD6-6*01_IGHJ1*01 S102A/S103P/S104F/H111F (H:APFF) & L6_IGKJ1*01 S76E (Fab, V domains shown, Tested as Fab expressed in E. coli; VH was cloned into Plasmid A (CH1 constant region, His6 and Flag tags) and the kappa VL into Plasmid C (kappa CL)) VH: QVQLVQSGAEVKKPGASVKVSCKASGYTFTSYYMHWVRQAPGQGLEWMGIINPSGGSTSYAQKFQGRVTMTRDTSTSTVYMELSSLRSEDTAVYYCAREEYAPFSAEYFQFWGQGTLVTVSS VL: EIVLTQSPATLSLSPGERATLSCRASQSVSSYLAWYQQKPGQAPRLLIYDASNRATGIPARFSGSGSGTDFTLTIESLEPEDFAVYYCQQRSNWPPWTFGQGTKVEIKR ?
0.36
